Cited source: patent US20210403593A1

Target: T1, cynomolgus macaque (Macaca fascicularis) CD39 (Macaca fascicularis, UniProt P49961 7-510 (human entry))
T1 construct: On engineered CHO cells and on primary cyno B cells and monocytes; also called cyno CD39; cCD39
T1 chain: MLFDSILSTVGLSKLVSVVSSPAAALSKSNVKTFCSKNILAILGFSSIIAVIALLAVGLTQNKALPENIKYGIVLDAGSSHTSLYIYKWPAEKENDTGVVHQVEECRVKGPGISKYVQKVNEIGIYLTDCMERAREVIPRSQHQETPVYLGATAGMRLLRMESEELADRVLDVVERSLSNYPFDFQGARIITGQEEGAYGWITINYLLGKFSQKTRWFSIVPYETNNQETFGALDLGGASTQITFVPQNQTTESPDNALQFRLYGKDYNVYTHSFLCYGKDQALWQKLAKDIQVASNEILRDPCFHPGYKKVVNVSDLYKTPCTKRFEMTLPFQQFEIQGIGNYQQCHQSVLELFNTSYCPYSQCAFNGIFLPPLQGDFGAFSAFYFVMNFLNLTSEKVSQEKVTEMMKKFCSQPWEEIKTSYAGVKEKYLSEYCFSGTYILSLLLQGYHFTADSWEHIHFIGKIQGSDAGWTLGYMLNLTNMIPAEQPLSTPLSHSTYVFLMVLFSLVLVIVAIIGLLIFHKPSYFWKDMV
Test: flow cytometry, 100 nM IgG, MFI on CHO-cCD39 / MFI on parental CHO;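 note: antibodies bound to the cells for 30 min in PBS, then bound IgG was revealed with a fluorescent goat anti-human IgG secondary antibody, 20 min on ice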
Think of 5000 fold over background as a floor: if Cell Binding (FOB) stands on it or above, it is true (1); beneath it, false (0).

In: Confirm if Cell Binding (FOB) reported for the binder 31430 (antibody, human IgG4 S228P, kappa, V domains shown) VH: QVQLVQSGAEVKKPGASVKVSCKASGYTFKSYEMHWVRQAPGQGLEWMGRINPSGGSTWYAQKFQGRVTMTRDTSTSTVYMELSSLRSEDTAVYYCARGKREGGTEYLRHWGQGTLVTVSS VL: EIVLTQSPGTLSLSPGERATLSCEASQSVSYSYLAWYQQKPGQAPRLLIYGASSRANGIPDRFSGSGSGTDFTLTISRLEPEDFAVYYCQQYHSALTFGGGTKVEIKR is 5000 fold over background or above.
Out: false (0)

In: Confirm if Cell Binding (FOB) reported for the binder 27587 (antibody, human IgG4 S228P, kappa, V domains shown) VH: QVQLVQSGAEVKKPGSSVKVSCKASGGTFSSYAISWVRQAPGQGLEWMGSIIPIFGTANYAQKFQGRVTITADESTSTAYMELSSLRSEDTAVYYCARESGGYRDHKLDVWGQGTMVTVSS VL: EIVLTQSPATLSLSPGERATLSCRASQSVSSYLAWYQQKPGQAPRLLIYDASKRATGIPARFSGSGSGTDFTLTISSLEPEDFAVYYCQQDVLWPLTFGGGTKVEIKR is 5000 fold over background or above.
Out: false (0)

In: Confirm if Cell Binding (FOB) reported for the binder 27597 (antibody, human IgG4 S228P, kappa, V domains shown) VH: QVQLVQSGAEVKKPGSSVKVSCKASGGTFSSYAISWVRQAPGQGLEWMGSIIPIFGTANYAQKFQGRVTITADESTSTAYMELSSLRSEDTAVYYCAREGRGYDSSRYYKFWFDPWGQGTLVTVSS VL: EIVLTQSPATLSLSPGERATLSCRASQSVSSYLAWYQQKPGQAPRLLIYDASNRATGIPARFSGSGSGTDFTLTISSLEPEDFAVYYCQQFVLWPRTFGGGTKVEIKR is 5000 fold over background or above.
Out: false (0)

In: Confirm if Cell Binding (FOB) reported for the binder 31861 (antibody, human IgG4 S228P, kappa, V domains shown) VH: QVQLVQSGAEVKKPGSSVKVSCKASGGTFGSYGISWVRQAPGQGLEWMGSIIPEFGIANYAQKFQGRVTITADESTSTAYMELSSLRSEDTAVYYCARESGTYRDHRLDVWGQGTMVTVSS VL: EIVMTQSPATLSVSPGERATLSCRASQSVGSNLAWYQQKPGQAPRLLIYGASTRATGIPARFSGSGSGTEFTLTISSLQSEDFAVYYCQQYLLWPLTFGGGTKVEIKR is 5000 fold over background or above.
Out: true (1)
